Source of measurements: patent US20250084056A1

Documented Ratio of GSPT1 DC50/Cyclin E1 DC50 across a set of compounds
- Measurement target: Cyclin E1 (Homo sapiens, UniProt P24864+Q96SW2)
- Sequence (P24864 whole entry): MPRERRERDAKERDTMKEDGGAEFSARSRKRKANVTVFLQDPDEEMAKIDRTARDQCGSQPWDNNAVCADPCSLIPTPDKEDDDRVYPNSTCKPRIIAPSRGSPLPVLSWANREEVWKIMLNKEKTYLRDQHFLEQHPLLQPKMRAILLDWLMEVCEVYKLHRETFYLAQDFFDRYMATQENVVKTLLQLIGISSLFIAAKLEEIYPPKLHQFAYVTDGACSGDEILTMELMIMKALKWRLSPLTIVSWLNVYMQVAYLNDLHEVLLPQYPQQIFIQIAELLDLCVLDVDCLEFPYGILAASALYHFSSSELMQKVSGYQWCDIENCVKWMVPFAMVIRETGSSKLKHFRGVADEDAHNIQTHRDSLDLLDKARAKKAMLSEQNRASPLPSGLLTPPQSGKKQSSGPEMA
- Sequence (Q96SW2 whole entry): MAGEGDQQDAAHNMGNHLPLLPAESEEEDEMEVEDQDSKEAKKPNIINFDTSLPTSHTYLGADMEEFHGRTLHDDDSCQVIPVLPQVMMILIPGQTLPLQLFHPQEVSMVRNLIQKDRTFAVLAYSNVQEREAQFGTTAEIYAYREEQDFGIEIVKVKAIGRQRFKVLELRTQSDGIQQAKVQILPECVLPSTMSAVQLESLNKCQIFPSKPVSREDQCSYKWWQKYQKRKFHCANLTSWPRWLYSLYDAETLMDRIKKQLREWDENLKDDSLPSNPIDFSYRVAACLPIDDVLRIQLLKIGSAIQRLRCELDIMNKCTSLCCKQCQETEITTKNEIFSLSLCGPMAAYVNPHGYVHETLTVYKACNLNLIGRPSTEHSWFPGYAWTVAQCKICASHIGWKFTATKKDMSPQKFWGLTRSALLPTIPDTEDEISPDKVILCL
- Sequence (Q16531 whole entry partner): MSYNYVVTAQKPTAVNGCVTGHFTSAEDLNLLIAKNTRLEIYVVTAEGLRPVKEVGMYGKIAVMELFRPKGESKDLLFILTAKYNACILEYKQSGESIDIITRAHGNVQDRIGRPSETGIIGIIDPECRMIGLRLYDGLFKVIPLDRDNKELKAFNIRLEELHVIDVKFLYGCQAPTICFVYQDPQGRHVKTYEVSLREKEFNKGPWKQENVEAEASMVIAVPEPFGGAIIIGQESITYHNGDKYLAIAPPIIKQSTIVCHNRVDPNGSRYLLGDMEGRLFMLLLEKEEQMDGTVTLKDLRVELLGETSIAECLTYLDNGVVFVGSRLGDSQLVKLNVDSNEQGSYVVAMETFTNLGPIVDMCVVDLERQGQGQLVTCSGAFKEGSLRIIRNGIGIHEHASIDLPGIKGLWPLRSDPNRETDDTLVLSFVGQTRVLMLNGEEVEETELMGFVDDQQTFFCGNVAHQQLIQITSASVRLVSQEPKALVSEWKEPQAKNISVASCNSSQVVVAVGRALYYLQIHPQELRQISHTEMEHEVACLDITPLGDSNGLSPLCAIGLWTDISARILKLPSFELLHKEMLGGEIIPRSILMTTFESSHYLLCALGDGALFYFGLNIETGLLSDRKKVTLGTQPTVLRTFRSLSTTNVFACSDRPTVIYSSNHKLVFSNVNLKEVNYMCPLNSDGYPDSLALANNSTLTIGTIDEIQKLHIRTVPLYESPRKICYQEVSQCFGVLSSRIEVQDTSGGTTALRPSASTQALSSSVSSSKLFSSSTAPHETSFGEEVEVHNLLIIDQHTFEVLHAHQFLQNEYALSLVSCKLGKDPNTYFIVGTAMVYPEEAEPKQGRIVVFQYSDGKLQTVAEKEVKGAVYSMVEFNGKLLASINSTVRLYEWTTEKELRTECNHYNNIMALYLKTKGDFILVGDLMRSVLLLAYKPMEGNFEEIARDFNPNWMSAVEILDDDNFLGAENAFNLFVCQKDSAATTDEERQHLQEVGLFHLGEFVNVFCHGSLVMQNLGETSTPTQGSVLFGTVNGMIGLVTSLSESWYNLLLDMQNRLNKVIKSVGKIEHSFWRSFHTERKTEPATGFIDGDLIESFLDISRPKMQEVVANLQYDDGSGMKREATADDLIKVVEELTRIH
- Measurement protocol: Cyclin E1 Cellular Degradation Assay (MSD)
- Type: cell-based
- Set-up: endogenous in cells; host or cells: OVCAR3
- Condition set: selectivity for degradation of Cyclin E1 over GSPT1
- Protocol: Culturing cells: On Day 0, OVCAR3 cells were plated at 15,000 cells/well in 40 μL of culture medium (RPMI1640, 20% FBS, 0.01 insulin, 1% Anti/Anti) in a 384 well cell culture plate. Cell cultures were incubated for 24 hours at 37° C. and 5% CO2. […] Collecting data: After thawing, 25 μL of lysate was transferred to a coated MSD plate. […] After the final wash, 35 μL of 1× Read Buffer (MSD R92TC-1) was added to each well and the data was captured using the MSD plate reader. […]

COc1c(COC(=O)Nc2ccc(Cc3ccc(F)c(Cl)c3)cc2)ccc2c1C(=O)N(C1CCC(=O)NC1=O)C2 (stereo not shown)	>353
CC(C)Oc1c(COC(=O)Nc2ccc(Oc3ccccc3Cl)cc2)ccc2c1C(=O)N(C1CCC(=O)NC1=O)C2 (stereo not shown)	>230
COc1c(COC(=O)Nc2ccc(Oc3ccc(F)cc3C)cc2C)ccc2c1C(=O)N(C1CCC(=O)NC1=O)C2 (stereo not shown)	>52
COc1c(COC(=O)Nc2ccc(Cc3cccc(F)c3)cc2)ccc2c1C(=O)N(C1CCC(=O)NC1=O)C2 (stereo not shown)	>226

Name the reported Ratio of GSPT1 DC50/Cyclin E1 DC50 value associated with the compound COc1c(COC(=O)Nc2ccc(Oc3cccc(F)c3Cl)cc2)ccc2c1C(=O)N(C1CCC(=O)NC1=O)C2 (stereo not shown)
>147

Now consider COc1c(COC(=O)Nc2ccc(Oc3cc(F)ccc3Cl)cc2)ccc2c1C(=O)N(C1CCC(=O)NC1=O)C2 (stereo not shown) .
>245

One more compound: COc1c(COC(=O)Nc2ccc(Oc3ccc(F)c(F)c3)cc2Cl)ccc2c1C(=O)N(C1CCC(=O)NC1=O)C2 (stereo not shown)
>39

---

- Measurement target: Cyclin E1 (Homo sapiens, UniProt P24864+Q96SW2)
- Measurement protocol: Cyclin E1 Cellular Degradation Assay (MSD)
- Format: cell-based
- Design: endogenous in cells; host or cells: OVCAR3
- Condition set: selectivity for degradation of Cyclin E1 over GSPT1
Entries and their Ratio of GSPT1 DC50/Cyclin E1 DC50

COc1c(COC(=O)Nc2ccc(Oc3cc(F)c(F)c(F)c3)cc2)ccc2c1C(=O)N(C1CCC(=O)NC1=O)C2 (stereo not shown)	>49
CC(=O)N1CCC(Oc2c(COC(=O)Nc3ccc(Oc4ccc(F)c(F)c4)cc3)ccc3c2C(=O)N(C2CCC(=O)NC2=O)C3)CC1 (stereo not shown)	>62
COc1c(COC(=O)Nc2ccc(Oc3ccc(F)cc3C(F)F)cc2)ccc2c1C(=O)N(C1CCC(=O)NC1=O)C2 (stereo not shown)	>48

Next compound, please.
Give the measured Ratio of GSPT1 DC50/Cyclin E1 DC50 of COc1c(COC(=O)Nc2ccc(Nc3cccc(F)c3)cc2)ccc2c1C(=O)N(C1CCC(=O)NC1=O)C2 (stereo not shown) .
>22

---

- Measurement target: Cyclin E1 (Homo sapiens, UniProt P24864+Q96SW2)
- Measurement protocol: Cyclin E1 Cellular Degradation Assay (MSD)
- Assay type: cell-based
- Design: endogenous in cells; host or cells: OVCAR3
- Condition set: Cyclin E1 cellular degradation, maximum degradation
Readout label: Dmax (%)

CC(=O)N1CCC(Oc2c(COC(=O)Nc3ccc(Oc4ccc(F)c(F)c4)cc3)ccc3c2C(=O)N(C2CCC(=O)NC2=O)C3)CC1 (stereo not shown) [Example 179]	104
CC(C)Oc1c(COC(=O)Nc2ccc(Oc3cccc(F)c3)cc2)ccc2c1C(=O)N(C1CCC(=O)NC1=O)C2 (stereo not shown) [Example 123]	107
CC(C)Oc1c(COC(=O)Nc2ccc(Oc3ccc(F)cc3)cc2)ccc2c1C(=O)N(C1CCC(=O)NC1=O)C2 (stereo not shown) [Example 59]	104
COc1c(COC(=O)Nc2ccc(Oc3ccccc3F)cc2)ccc2c1C(=O)N(C1CCC(=O)NC1=O)C2 (stereo not shown) [Example 79]	112
COc1c(COC(=O)Nc2ccc(Oc3ccc(F)cc3F)cc2)ccc2c1C(=O)N(C1CCC(=O)NC1=O)C2 (stereo not shown) [Example 5]	118
COc1cc(Oc2cc(F)c(F)c(F)c2)ccc1NC(=O)OCc1ccc2c(c1OC)C(=O)N(C1CCC(=O)NC1=O)C2 (stereo not shown) [Example 72]	103
COc1c(COC(=O)Nc2ccc(Oc3ccc(F)c(Cl)c3)cc2F)ccc2c1C(=O)N(C1CCC(=O)NC1=O)C2 (stereo not shown) [Example 98]	109
